- Target Desc: Pseudomonas aeruginosa LpxC enzyme (Pseudomonas aeruginosa (strain ATCC 15692 / DSM 22644 / CIP 104116 / JCM 14847 / LMG 12228 / 1C / PRS 101 / PAO1), UniProt P47205)
- Assay Overview: biochemical
- Type: biochemical
- Condition Notes: inhibitory activity on Pseudomonas aeruginosa LpxC enzyme, class symbols A/B/C; read-out: Enzyme inhibitory activity
pIC50: −log10 of the molar value.
Attribute: pIC50

Which pIC50 value is on record for CCCOc1ccc(-c2ccc(C(=O)N(C)C(C(=O)NC)C(=O)NO)cc2)cc1 (centres unmarked) [Compound 212] ?
> 8.00

Subsequent entry: CNC(=O)C(C(=O)NO)N(C)C(=O)c1ccc(-c2ccc(OCC(C)(C)O)cc2)cc1 (centres unmarked) [Compound 280]
> 8.00

====

- Target Desc: E. coli LpxC enzyme (Escherichia coli (strain K12))
- Assay Overview: Inhibitory activity on E. coli LpxC enzyme (fluorescamine assay)
- Condition Notes: Table 4
Measure Name: pIC50
Conceptually, pIC50 converts a concentration in mol/L into minus its log10.

Some compounds with recorded pIC50:
>>> recorded_measurement("CNC(=O)[C@@](C)(C(=O)NO)N(C)C(=O)c1ccc(/C=C/c2ccc(CN3CCOCC3)cc2)cc1 [Compound 434]")
7.26
>>> recorded_measurement("CNC(=O)C(C(=O)NO)N(C)C(=O)c1ccc(C#Cc2ccc(CNC3CC3)cc2)cc1 (centres unmarked) [Compound 301]")
7.00
>>> recorded_measurement("CNC(=O)[C@@](C)(C(=O)NO)N(C)C(=O)c1ccc(CCc2ccc(CN3CCOCC3)cc2)cc1 [Compound 425]")
6.92

Which pIC50 value is on record for CCOC1CN(Cc2ccc(C#Cc3ccc(C(=O)N(C)[C@@](C)(C(=O)NC)C(=O)NO)cc3)cc2)C1 [Compound 557] ?
6.97

Subsequent entry: CNC(=O)C(C(=O)NO)N(C)C(=O)c1ccc(/C=C/C#Cc2ccc(CNC3CC3)cc2)cc1 (centres unmarked) [Compound 477]
7.48

Subsequent entry: CNC(=O)[C@@](C)(C(=O)NO)N(C)C(=O)c1ccc(C#Cc2ccc(CCN3CCOCC3)cc2)cc1 [Compound 410]
7.11

Subsequent entry: CNC(=O)[C@@](C)(C(=O)NO)N(C)C(=O)c1ccc(C#Cc2ccc(CN3CC(OC)C3)cc2)cc1 [Compound 567]
6.75

Subsequent entry: CCOc1ccc(-c2ccc(C(=O)N(C)[C@@](C)(C(=O)NC)C(=O)NO)cc2)cc1 [Compound 399]
7.89

Subsequent entry: CNC(=O)[C@@](C)(C(=O)NO)N(C)C(=O)c1ccc(C#Cc2ccc(CN3CCCOCC3)cc2)cc1 [Compound 376]
6.89

====

- Tested on: Klebsiella pneumoniae strain ATCC13883
- Assay Overview: Antimicrobial activity, MIC by broth microdilution
- Format: cell-based
- Condition Notes: Table 4, 35° C., 18 hours, read-out: Klebsiella pneumoniae ATCC 13883 strain MIC
Measure Name: MIC (µg/mL)
Lab book: enter the figure in µg/mL, no units written.

Some compounds with recorded MIC:
>>> recorded_measurement("CNC(=O)[C@@](C)(C(=O)NO)N(C)C(=O)c1ccc(C#Cc2ccc(CN3CCC(OC)CC3)cc2)cc1")
2
>>> recorded_measurement("CNC(=O)[C@@](C)(C(=O)NO)N(C)C(=O)c1ccc(C#Cc2ccc(CNC3CC3)cc2)cc1")
0.5
>>> recorded_measurement("CCOC1CN(Cc2ccc(C#Cc3ccc(C(=O)N(C)C(C(=O)NC)C(=O)NO)cc3)cc2F)C1 (stereo not shown)")
4
>>> recorded_measurement("CNC(=O)C(C(=O)NO)N(C)C(=O)c1ccc(C#Cc2ccc(CNC3CC3)cc2)cc1 (stereo not shown)")
4
>>> recorded_measurement("CNC(=O)[C@@](C)(C(=O)NO)N(C)C(=O)c1ccc(C#Cc2ccc(CN3CC(C)(OC)C3)cc2)cc1")
2
>>> recorded_measurement("CNC(=O)C(C(=O)NO)N(C)C(=O)c1ccc(/C=C/C#Cc2ccc(CNC3CC3)cc2)cc1 (stereo not shown)")
1

Could you now consider this next compound?
Which MIC value is on record for CNC(=O)[C@@](C)(C(=O)NO)N(C)C(=O)c1ccc(C#Cc2ccc(CN3CC(OC)C3)cc2)cc1 ?
2

====

- Target Desc: E. coli LpxC enzyme (Escherichia coli (strain K12), UniProt P0A725)
- Sequence (P0A725 whole entry): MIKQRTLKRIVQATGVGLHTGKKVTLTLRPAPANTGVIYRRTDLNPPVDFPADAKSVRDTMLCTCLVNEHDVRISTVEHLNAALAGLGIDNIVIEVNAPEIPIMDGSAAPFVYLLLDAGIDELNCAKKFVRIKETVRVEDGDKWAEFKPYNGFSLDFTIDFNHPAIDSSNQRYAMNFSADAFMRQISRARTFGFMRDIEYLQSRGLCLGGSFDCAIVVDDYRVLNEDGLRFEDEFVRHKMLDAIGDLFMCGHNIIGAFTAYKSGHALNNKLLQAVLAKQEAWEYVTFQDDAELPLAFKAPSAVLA
- Assay Overview: Inhibitory activity on E. coli LpxC enzyme (fluorescamine assay)
- Condition Notes: Table 4
Measure Name: pIC50
Conceptually, pIC50 converts a concentration in mol/L into minus its log10.

Some compounds with recorded pIC50:
>>> recorded_measurement("CCOc1ccc(-c2ccc(C(=O)N(C)C(C(=O)NC)C(=O)NO)cc2)cc1 (stereo not shown) [Compound 211]")
6.96
>>> recorded_measurement("CNC(=O)[C@@](C)(C(=O)NO)N(C)C(=O)c1ccc(C#Cc2ccc(CNC3COC3)cc2)cc1 [Compound 396]")
7.34
>>> recorded_measurement("CNC(=O)[C@@](C)(C(=O)NO)N(C)C(=O)c1ccc(C#Cc2ccc(CN3CC(C)(OC)C3)cc2)cc1 [Compound 558]")
6.63
>>> recorded_measurement("CNC(=O)[C@@](C)(C(=O)NO)N(C)C(=O)c1ccc(C#Cc2ccc(CNCCF)cc2)cc1 [Compound 554]")
6.92

Form field - read-out: pIC50; system: E. coli LpxC enzyme (Escherichia coli (strain K12), UniProt P0A725); submitted item: CNC(=O)C(C)(C(=O)NO)N(C)C(=O)c1ccc(C#Cc2coc(COC)c2)cc1 (stereo not shown) [Compound 528]
7.60

Subsequent entry: CNC(=O)[C@@](C)(C(=O)NO)N(C)C(=O)c1ccc(C#Cc2coc(CNC3CC3)c2)cc1 [Compound 585]
7.06

Subsequent entry: CNC(=O)[C@@](C)(C(=O)NO)N(C)C(=O)c1ccc(C#Cc2ccc(CN3CCOCC3)cc2)cc1 [Compound 561]
7.52

====

- Target Desc: Pseudomonas aeruginosa LpxC enzyme (Pseudomonas aeruginosa (strain ATCC 15692 / DSM 22644 / CIP 104116 / JCM 14847 / LMG 12228 / 1C / PRS 101 / PAO1), UniProt P47205)
- Assay Overview: biochemical
- Format: biochemical
- Condition Notes: inhibitory activity on Pseudomonas aeruginosa LpxC enzyme, class symbols A/B/C; read-out: Enzyme inhibitory activity
pIC50: −log10 of the molar value.
Measure Name: pIC50

Which pIC50 value is on record for CNC(=O)C(C(=O)NO)N(C)C(=O)c1ccc(Cc2ccccc2)cc1 (stereo not drawn) [Compound 445] ?
< 7.00

Subsequent entry: CNC(=O)C(C(=O)NO)N(C)C(=O)c1ccc(-c2c(F)cccc2F)cc1 (stereo not drawn) [Compound 233]
7.00 to 8.00

Subsequent entry: CNC(=O)C(C(=O)NO)N(C)C(=O)c1ccc(-c2ccc(OCCCN3CCOC3=O)cc2)cc1 (stereo not drawn) [Compound 71]
> 8.00

Subsequent entry: CNC(=O)C(C(=O)NO)N(C)C(=O)c1ccc(-c2ccc(NC3CCC3)cc2)cc1 (stereo not drawn) [Compound 268]
> 8.00

Subsequent entry: CNC(=O)C(C(=O)NO)N(C)C(=O)c1ccc(-c2ccc3c(c2)N(C)C(=O)CO3)cc1 (stereo not drawn) [Compound 82]
> 8.00

Subsequent entry: CN(C(=O)c1ccc(-c2ccccc2)cc1)C(C(=O)NO)C(=O)NCc1cccnc1 (stereo not drawn) [Compound 177]
7.00 to 8.00

Subsequent entry: O=C(NC(C(=O)NO)C(=O)NO)c1ccc(-c2ccccc2)cc1 [Compound 109]
7.00 to 8.00

Subsequent entry: CNC(=O)C(C(=O)NO)N(C)C(=O)c1ccc(-c2ccc(OCCCN(C)Cc3ccccc3)cc2NC)cc1 (stereo not drawn) [Compound 106]
7.00 to 8.00

Subsequent entry: CNC(=O)C(C(=O)NO)N(C)C(=O)c1ccc(-c2ccc(NCCCN(C)Cc3ccccc3)cc2)cc1 (stereo not drawn) [Compound 97]
7.00 to 8.00

Subsequent entry: CCNC(=O)C(NC(=O)c1ccc(-c2ccc(OCCO)cc2)cc1)C(=O)NO (stereo not drawn) [Compound 139]
7.00 to 8.00

Subsequent entry: CNC(=O)C(C(=O)NO)N(C)C(=O)c1ccc(-c2cnccn2)cc1 (stereo not drawn) [Compound 309]
< 7.00

Subsequent entry: CNC(=O)C(C(=O)NO)N(C)C(=O)c1ccc(-c2ccc(OC(F)F)cc2)cc1 (stereo not drawn) [Compound 51]
> 8.00

====

- Target Desc: Pseudomonas aeruginosa LpxC enzyme (Pseudomonas aeruginosa (strain ATCC 15692 / DSM 22644 / CIP 104116 / JCM 14847 / LMG 12228 / 1C / PRS 101 / PAO1))
- Assay Overview: biochemical
- Type: biochemical
- Condition Notes: inhibitory activity on Pseudomonas aeruginosa LpxC enzyme, class symbols A/B/C; read-out: Enzyme inhibitory activity
Measure Name: IC50

>>> recorded_measurement("O=C(NC(C(=O)NO)C(=O)NCCO)c1ccc(-c2ccc(OCCO)cc2)cc1 (stereo not drawn)")
"10 to 100 nM"

Which IC50 value is on record for CNC(=O)C(C(=O)NO)N(C)C(=O)c1ccc(OCc2ccc(OC)cc2)cc1 (stereo not drawn) ?
10 to 100 nM

Subsequent entry: CNC(=O)C(C(=O)NO)N(C)C(=O)c1ccc(-c2ccc(CNC3CC3)cc2)cc1 (stereo not drawn)
10 to 100 nM

Subsequent entry: CNC(=O)C(C(=O)NO)N(C)C(=O)c1ccc(-c2ccc(/C=N/O)cc2)cc1 (stereo not drawn)
< 10 nM

Subsequent entry: CNC(=O)C(C(=O)NO)N(OC)C(=O)c1ccc(-c2ccccc2)cc1 (stereo not drawn)
10 to 100 nM

Subsequent entry: CNC(=O)C(C(=O)NO)N(C)C(=O)c1ccc(-c2ccc3c(ccn3C)c2)cc1 (stereo not drawn)
< 10 nM

Subsequent entry: CNC(=O)C(C(=O)NO)N(C)C(=O)c1ccc(C#Cc2coc(CNCC(F)(F)F)c2)cc1 (stereo not drawn)
< 10 nM

Subsequent entry: CNC(=O)C(C(=O)NO)N(C)C(=O)c1ccc(-c2ccc(OCC(C)C)cc2)cc1 (stereo not drawn)
< 10 nM

Subsequent entry: CNC(=O)C(C(=O)NO)N(C)C(=O)c1ccc(C#Cc2ccc(OCCCN3CCOCC3)cc2)cc1 (stereo not drawn)
< 10 nM

Subsequent entry: CNC(=O)C(C(=O)NO)N(C)C(=O)c1ccc(-c2ccc3c(c2)OC(F)(F)O3)cc1 (stereo not drawn)
< 10 nM
